Collected viability, T/C values appear next to each entry.
# System: NCI-H322M multicellular tumor spheroids, viability (% test/control)
# Run Description: Anticancer human tumor NCI-H322M cell line growth inhibition;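 further: spheroids exposed to compound for seven days before readout; 100% = DMSO vehicle control wells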
# Particulars: second compound 0.0003 µM; first compound 0.1 µM; stronger effect = lower value
Use % as the unit, but write only the number.

Ask | Record CC(C)n1c(=O)n(C)c2cnc3cc(F)c(-c4ccc(OCCCN5CCCCC5)nc4)cc3c21 + COc1cc2c(cc1O)CCNC21CSC2c3c(OC(C)=O)c(C)c4c(c3C(COC1=O)N1C(O)C3Cc5cc(C)c(OC)c(O)c5C(C21)N3C)OCO4 : what is its viability, T/C with NCI-H322M multicellular tumor spheroids, viability (% test/control)?
Reply | 59.9

# next compound below
Ask | Record CC1COCCN1c1cc(-c2ccnn2C)c2ccnc(-c3ccn[nH]3)c2n1 (configuration not stated) + COc1cc2c(cc1O)CCNC21CSC2c3c(OC(C)=O)c(C)c4c(c3C(COC1=O)N1C(O)C3Cc5cc(C)c(OC)c(O)c5C(C21)N3C)OCO4 : what is its viability, T/C with NCI-H322M multicellular tumor spheroids, viability (% test/control)?
Reply | 21.1

====

# Tested on: NCI-H322M multicellular tumor spheroids, viability (% test/control)
# Run Description: Anticancer human tumor NCI-H322M cell line growth inhibition; active = viability on the fitted dose curve at most 10% of control; inactive = the rest;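 further: spheroids exposed to compound for seven days before readout; 100% = DMSO vehicle control wells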
# Particulars: second compound 0.003 µM; first compound 0.3 µM
Hi there, use one of these labels in your reply, thanks! active, inactive

Ask | Status in this test for CNCc1ccc(-c2cc(-c3nc(-c4ccc(S(=O)(=O)C(C)C)cc4)cnc3N)on2)cc1 + CC[C@@]1(O)C(=O)OCc2c1cc1n(c2=O)Cc2cc3c(CN(C)C)c(O)ccc3nc2-1 ?
Reply | inactive

Ask | Status in this test for Cc1sc2c(c1C)C(c1ccc(Cl)cc1)=NC(CC(=O)Nc1ccc(O)cc1)c1nnc(C)n1-2 (stereo not drawn) + COc1cc2c(cc1O)CCNC21CSC2c3c(OC(C)=O)c(C)c4c(c3C(COC1=O)N1C(O)C3Cc5cc(C)c(OC)c(O)c5C(C21)N3C)OCO4 ?
Reply | active

Here's the next entry for you.
Ask | Status in this test for Cc1sc2c(c1C)C(c1ccc(Cl)cc1)=NC(CC(=O)Nc1ccc(O)cc1)c1nnc(C)n1-2 (stereo not drawn) + CC[C@@]1(O)C(=O)OCc2c1cc1n(c2=O)Cc2cc3c(CN(C)C)c(O)ccc3nc2-1 ?
Reply | inactive

====

# Tested on: NCI-H322M multicellular tumor spheroids, viability (% test/control)
# Run Description: Anticancer human tumor NCI-H322M cell line growth inhibition;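 further: spheroids exposed to compound for seven days before readout; 100% = DMSO vehicle control wells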
# Particulars: second compound 0.03 µM; first compound 0.3 µM; stronger effect = lower value
Collected viability, T/C values appear next to each entry.
Use % as the unit, but write only the number.

Consider the worked cases shown below.
Ask | Quick one: viability, T/C for Cc1sc2c(c1C)C(c1ccc(Cl)cc1)=NC(CC(=O)Nc1ccc(O)cc1)c1nnc(C)n1-2 (centres undefined) + CC[C@@]1(O)C(=O)OCc2c1cc1n(c2=O)Cc2cc3c(CN(C)C)c(O)ccc3nc2-1 ?
Reply | 103

Ask | Quick one: viability, T/C for O=C(c1cc(Cc2n[nH]c(=O)c3ccccc23)ccc1F)N1CCN(C(=O)C2CC2)CC1 + CC[C@@]1(O)C(=O)OCc2c1cc1n(c2=O)Cc2cc3c(CN(C)C)c(O)ccc3nc2-1 ?
Reply | 69.7

Ask | Quick one: viability, T/C for CNCc1ccc(-c2cc(-c3nc(-c4ccc(S(=O)(=O)C(C)C)cc4)cnc3N)on2)cc1 + CC[C@@]1(O)C(=O)OCc2c1cc1n(c2=O)Cc2cc3c(CN(C)C)c(O)ccc3nc2-1 ?
Reply | 69.1

# next compound below
Ask | Quick one: viability, T/C for Cn1ncnc1[C@H]1c2n[nH]c(=O)c3cc(F)cc(c23)N[C@@H]1c1ccc(F)cc1 + CC[C@@]1(O)C(=O)OCc2c1cc1n(c2=O)Cc2cc3c(CN(C)C)c(O)ccc3nc2-1 ?
Reply | 70.2
